measurement-target: butyrylcholinesterase (BChE, equine serum) (Equus caballus)
Construct: Butyrylcholinesterase (from equine serum) was purchased from Fluka; purchased Fluka; host or cells: equine serum
assay-remarks: Ellman's assay, butyrylcholinesterase inhibition
Type: biochemical
run-conditions: c = 30 µM; mean ± SE
In this section we review reported Grade of inhibition in% BChE values for a set of molecules.

molecule	measurement-target	Grade of inhibition in% BChE / %
CC(=O)[C@@H]1CC[C@]2(C(=O)NCCN(C)C)CC[C@]3(C)[C@H](CC[C@@H]4[C@@]5(C)CC[C@H](O)C(C)(C)[C@@H]5CC[C@]43C)[C@@H]12 [Compound 30]	butyrylcholinesterase (BChE, equine serum) (Equus caballus)	89.76
C=C(C)C1CC[C@]2(C(=O)NCCN3CCCC3)CC[C@]3(C)C(CCC4[C@@]5(C)CC[C@H](O)C(C)(C)C5CC[C@]43C)C12 (stereo partly shown) [Compound 39]	butyrylcholinesterase (BChE, equine serum) (Equus caballus)	60.48
CC1(C)CC[C@]2(C(=O)NCCN3CCCCC3)CC[C@]3(C)C(=CC[C@@H]4[C@@]5(C)CC[C@H](O)C(C)(C)[C@@H]5CC[C@]43C)[C@@H]2C1 [Compound 47]	butyrylcholinesterase (BChE, equine serum) (Equus caballus)	74.89
CC(=O)OC1CCC2(C)C(CCC3(C)C2CC=C2C4CC(C)(C)CCC4(C(=O)NCCN)CCC23C)C1(C)C (stereo not shown) [Compound 12]	butyrylcholinesterase (BChE, equine serum) (Equus caballus)	57.54
CN(C)CCNC(=O)[C@]12CCC(C)(C)C[C@H]1C1=CC[C@@H]3[C@@]4(C)C[C@@H](O)[C@H](O)C(C)(C)[C@@H]4CC[C@@]3(C)[C@]1(C)CC2 [Compound 28]	butyrylcholinesterase (BChE, equine serum) (Equus caballus)	79.01
CC(=O)OC1CCC2(C)C(CCC3(C)C2CC=C2C4CC(C)(C)CCC4(C(=O)NCCN4CCCCC4)CCC23C)C1(C)C (stereo not shown) [Compound 42]	butyrylcholinesterase (BChE, equine serum) (Equus caballus)	53.09
C[C@@H]1CC[C@]2(C(=O)NCCN(C)C)CC[C@]3(C)C(=CCC4[C@@]5(C)CC[C@H](O)C(C)(C)C5CC[C@]43C)C2[C@H]1C (stereo partly shown) [Compound 26]	butyrylcholinesterase (BChE, equine serum) (Equus caballus)	77.74
C=C(C)C1CC[C@]2(C(=O)NCCN(C)C)CC[C@]3(C)C(CCC4[C@@]5(C)CC[C@H](O)C(C)(C)C5CC[C@]43C)C12 (stereo partly shown) [Compound 29]	butyrylcholinesterase (BChE, equine serum) (Equus caballus)	56.68
CC(=O)OC1CC2(C)C(CCC3(C)C2CC=C2C4CC(C)(C)CCC4(C(=O)NCCN4CCCCC4)CCC23C)C(C)(C)C1OC(C)=O (stereo not shown) [Compound 43]	butyrylcholinesterase (BChE, equine serum) (Equus caballus)	53.47
C[C@@H]1CC[C@]2(C(=O)NCCN3CCCC3)CC[C@]3(C)C(=CCC4[C@@]5(C)CC[C@H](O)C(C)(C)C5CC[C@]43C)C2[C@H]1C (stereo partly shown) [Compound 36]	butyrylcholinesterase (BChE, equine serum) (Equus caballus)	85.66
C=C(C)C1CC[C@]2(C(=O)NCCN3CCCCC3)CC[C@]3(C)C(CCC4[C@@]5(C)CC[C@H](OC(C)=O)C(C)(C)C5CC[C@]43C)C12 (stereo partly shown) [Compound 44]	butyrylcholinesterase (BChE, equine serum) (Equus caballus)	33.83
CC1(C)CCC2(C(=O)NCCN3CCCC3)CCC3(C)C(=CCC4C5(C)CC(O)C(O)C(C)(C)C5CCC43C)C2C1 (stereo not shown) [Compound 38]	butyrylcholinesterase (BChE, equine serum) (Equus caballus)	77.49
CC1(C)CCC2(C(=O)NCCN)CCC3(C)C(=CCC4C5(C)CC(O)C(O)C(C)(C)C5CCC43C)C2C1 (stereo not shown) [Compound 18]	butyrylcholinesterase (BChE, equine serum) (Equus caballus)	68.83
CC(=O)OC1CC2(C)C(CCC3(C)C2CC=C2C4CC(C)(C)CCC4(C(=O)NCCN4CCCC4)CCC23C)C(C)(C)C1OC(C)=O (stereo not shown) [Compound 33]	butyrylcholinesterase (BChE, equine serum) (Equus caballus)	33.01
CC(=O)O[C@H]1CC[C@]2(C)[C@H]3CC[C@@H]4[C@H]5[C@H](C(C)=O)CC[C@]5(C(=O)NCCN5CCCC5)CC[C@@]4(C)[C@]3(C)CC[C@H]2C1(C)C [Compound 35]	butyrylcholinesterase (BChE, equine serum) (Equus caballus)	94.60
CC(=O)[C@@H]1CC[C@]2(C(=O)NCCN3CCCC3)CC[C@]3(C)[C@H](CC[C@@H]4[C@@]5(C)CC[C@H](O)C(C)(C)[C@@H]5CC[C@]43C)[C@@H]12 [Compound 40]	butyrylcholinesterase (BChE, equine serum) (Equus caballus)	89.15

###

measurement-target: acetylcholinesterase (AChE, electric eel) (Electrophorus electricus, UniProt O42275)
Sequence (O42275 24-633): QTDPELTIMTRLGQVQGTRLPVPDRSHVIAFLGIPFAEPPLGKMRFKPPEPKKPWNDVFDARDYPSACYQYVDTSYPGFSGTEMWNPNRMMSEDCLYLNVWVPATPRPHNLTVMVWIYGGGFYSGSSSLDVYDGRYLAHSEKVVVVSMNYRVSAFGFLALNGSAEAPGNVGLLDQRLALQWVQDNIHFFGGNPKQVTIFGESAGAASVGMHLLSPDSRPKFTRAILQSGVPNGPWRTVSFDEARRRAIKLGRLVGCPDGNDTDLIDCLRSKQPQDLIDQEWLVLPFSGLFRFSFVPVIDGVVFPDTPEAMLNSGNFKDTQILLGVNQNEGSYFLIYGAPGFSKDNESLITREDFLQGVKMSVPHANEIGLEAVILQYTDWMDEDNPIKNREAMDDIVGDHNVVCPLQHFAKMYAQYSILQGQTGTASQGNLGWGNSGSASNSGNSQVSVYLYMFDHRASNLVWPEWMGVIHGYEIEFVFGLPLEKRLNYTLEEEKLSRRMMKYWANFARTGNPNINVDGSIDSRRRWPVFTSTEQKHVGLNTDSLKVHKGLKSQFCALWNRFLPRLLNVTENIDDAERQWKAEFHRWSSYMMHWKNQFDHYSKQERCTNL
run-conditions: AChE, electric eel; mean ± SE
Text: In this study, carboxamides with different triterpenoic backbones (ursolic, oleanolic, maslinic, betulinic, and platanic acids), and various amine residues (Scheme 1), were investigated. A TECAN SpectraFluorPlus working in the kinetic mode and measuring the absorbance at λ = 415 nm was used for the enzymatic studies. […] determined as the quotient of the slopes (compound divided by blank) of the linear ranges. […]
Catalogue of Ki' (uncompetitive inhibition) readings, one per entry.

molecule	Ki' (uncompetitive inhibition) [µM]
CC(=O)[C@@H]1CC[C@]2(C(=O)NCCN3CCCC3)CC[C@]3(C)[C@H](CC[C@@H]4[C@@]5(C)CC[C@H](O)C(C)(C)[C@@H]5CC[C@]43C)[C@@H]12	23.63
CC(=O)[C@@H]1CC[C@]2(C(=O)NCCN)CC[C@]3(C)[C@H](CC[C@@H]4[C@@]5(C)CC[C@H](O)C(C)(C)[C@@H]5CC[C@]43C)[C@@H]12	9.71
CC1(C)CC[C@]2(C(=O)NCCN)CC[C@]3(C)C(=CC[C@@H]4[C@@]5(C)CC[C@H](O)C(C)(C)[C@@H]5CC[C@]43C)[C@@H]2C1	18.24
CC(=O)[C@@H]1CC[C@]2(C(=O)NCCN(C)C)CC[C@]3(C)[C@H](CC[C@@H]4[C@@]5(C)CC[C@H](O)C(C)(C)[C@@H]5CC[C@]43C)[C@@H]12	74.05
CC(=O)O[C@H]1CC[C@]2(C)[C@H]3CC[C@@H]4[C@H]5[C@H](C(C)=O)CC[C@]5(C(=O)NCCN)CC[C@@]4(C)[C@]3(C)CC[C@H]2C1(C)C	6.83
C=C(C)C1CC[C@]2(C(=O)NCCN3CCCCC3)CC[C@]3(C)C(CCC4[C@@]5(C)CC[C@H](O)C(C)(C)C5CC[C@]43C)C12 (stereo partly drawn)	1.42

###

measurement-target: butyrylcholinesterase (BChE, equine serum) (Equus caballus, UniProt P81908)
Construct: Butyrylcholinesterase (from equine serum) was purchased from Fluka; purchased Fluka; host or cells: equine serum
Sequence (P81908 whole entry): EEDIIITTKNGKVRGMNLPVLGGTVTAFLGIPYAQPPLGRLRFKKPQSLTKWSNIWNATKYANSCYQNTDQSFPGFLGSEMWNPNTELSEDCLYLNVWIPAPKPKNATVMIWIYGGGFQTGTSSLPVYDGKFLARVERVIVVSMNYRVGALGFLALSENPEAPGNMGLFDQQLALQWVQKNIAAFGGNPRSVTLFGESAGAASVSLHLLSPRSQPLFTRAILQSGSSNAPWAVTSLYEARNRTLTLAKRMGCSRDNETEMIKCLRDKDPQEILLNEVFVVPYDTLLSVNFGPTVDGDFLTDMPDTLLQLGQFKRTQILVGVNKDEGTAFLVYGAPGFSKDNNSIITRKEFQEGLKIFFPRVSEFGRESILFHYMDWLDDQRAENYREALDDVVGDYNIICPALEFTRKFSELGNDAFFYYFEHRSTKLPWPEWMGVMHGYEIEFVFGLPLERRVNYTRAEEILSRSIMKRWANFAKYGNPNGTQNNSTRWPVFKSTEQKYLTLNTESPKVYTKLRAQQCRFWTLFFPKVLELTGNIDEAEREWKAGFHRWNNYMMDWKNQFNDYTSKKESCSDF
assay-remarks: Ellman's assay, butyrylcholinesterase inhibition
Assay type: biochemical
run-conditions: BChE, equine serum; Ellman's assay
Description: In this study, carboxamides with different triterpenoic backbones (ursolic, oleanolic, maslinic, betulinic, and platanic acids), and various amine residues (Scheme 1), were investigated. A TECAN SpectraFluorPlus working in the kinetic mode and measuring the absorbance at λ = 415 nm was used for the enzymatic studies. […] determined as the quotient of the slopes (compound divided by blank) of the linear ranges. […]

compound	unit-info	Ki′ (uncompetitive inhibition)
CN(C)CCNC(=O)[C@]12CCC(C)(C)C[C@H]1C1=CC[C@@H]3[C@@]4(C)C[C@@H](O)[C@H](O)C(C)(C)[C@@H]4CC[C@@]3(C)[C@]1(C)CC2	µM	27.26
CC(=O)O[C@H]1CC[C@@]2(C)C(CC[C@]3(C)C2CC=C2C4[C@@H](C)[C@H](C)CC[C@]4(C(=O)NCCN4CCCC4)CC[C@]23C)C1(C)C (stereo partly drawn)	µM	6.00
C[C@@H]1CC[C@]2(C(=O)NCCN)CC[C@]3(C)C(=CCC4[C@@]5(C)CC[C@H](O)C(C)(C)C5CC[C@]43C)C2[C@H]1C (stereo partly drawn)	µM	12.15

###

// acetylcholinesterase (AChE, electric eel) (Electrophorus electricus) log10 Ki records
attribute-measured: log10 Ki (log10 of the value in µM)

molecule	log10 Ki
CC(=O)[C@@H]1CC[C@]2(C(=O)NCCN)CC[C@]3(C)[C@H](CC[C@@H]4[C@@]5(C)CC[C@H](O)C(C)(C)[C@@H]5CC[C@]43C)[C@@H]12	0.86
CC(=O)[C@@H]1CC[C@]2(C(=O)NCCN3CCCC3)CC[C@]3(C)[C@H](CC[C@@H]4[C@@]5(C)CC[C@H](O)C(C)(C)[C@@H]5CC[C@]43C)[C@@H]12	1.45
C=C(C)C1CC[C@]2(C(=O)NCCN3CCCCC3)CC[C@]3(C)C(CCC4[C@@]5(C)CC[C@H](O)C(C)(C)C5CC[C@]43C)C12 (stereo partly drawn)	0.00
CC1(C)CC[C@]2(C(=O)NCCN)CC[C@]3(C)C(=CC[C@@H]4[C@@]5(C)CC[C@H](O)C(C)(C)[C@@H]5CC[C@]43C)[C@@H]2C1	0.93
CC(=O)[C@@H]1CC[C@]2(C(=O)NCCN(C)C)CC[C@]3(C)[C@H](CC[C@@H]4[C@@]5(C)CC[C@H](O)C(C)(C)[C@@H]5CC[C@]43C)[C@@H]12	1.19
CC(=O)O[C@H]1CC[C@]2(C)[C@H]3CC[C@@H]4[C@H]5[C@H](C(C)=O)CC[C@]5(C(=O)NCCN)CC[C@@]4(C)[C@]3(C)CC[C@H]2C1(C)C	0.49
